Source: ChEMBL document CHEMBL1148136

experiment: Growth inhibition of mouse Hepa-1c1c7 cells by crystal violet staining; assay type: cell-based; conditions: Mus musculus, Hepa-1c1c7
Documented IC50 across a set of compounds

Study these solved cases before continuing.
- CC1=C(C)C(=O)O[C@@H]([C@@H](C)[C@@]2(O)CC[C@H]3[C@@H]4C[C@H]5O[C@]56CCCC(=O)[C@]6(CO)[C@H]4CC[C@@]32C)C1: > 42.3 µM
- CC1=C(C)C(=O)O[C@@H]([C@@H](C)[C@H]2CC[C@H]3[C@@H]4[C@@H]5O[C@@H]5[C@@]5(O)CC=CC(=O)[C@]5(C)[C@H]4C[C@H](O)[C@]23C)C1 [WITHAFEROXOLIDE]: > 42.5 µM
- CO[C@@H]1O[C@@](C)([C@H]2CC(C)=C(C)C(=O)O2)[C@H]2CC[C@H]3[C@@H]4CC=C5C(=O)C=CC(=O)[C@]5(C)[C@H]4CC[C@]123: 7.29 µM

As a next step, examine the compound that follows.
In plain terms, `CC1=C(C)C(=O)O[C@@H]([C@@H]2CO[C@@]3(O)C[C@H]4[C@@H](C[C@@H](O)[C@@]5(O)CC=CC(=O)[C@]45C)[C@@H]4CC[C@]2(O)[C@]43C)C1` has a documented IC50 of > 39.8 µM

###

test: Chemoprevention index, ratio of IC50 for mouse Hepa-1c1c7 cells to drug level required to double specific quinone reductase activity in mouse Hepa-1c1c7 cells; assay type: functional
Documented Ratio across a set of compounds

• CC1=C(CO)C(=O)O[C@@H]([C@@H](C)[C@H]2CC[C@H]3[C@@H]4C[C@H]5O[C@]56CC=CC(=O)[C@]6(C)[C@H]4CC[C@]23C)C1 [JABOROSALACTONE A] = 6.3
• CC1=C(C)C(=O)O[C@@H]([C@@H](C)[C@@]2(O)CC[C@H]3[C@@H]4C[C@H]5O[C@]56CCCC(=O)[C@]6(CO)[C@H]4CC[C@@]32C)C1 [JABOROSALACTONE O] = >27.8
• CO[C@H]1O[C@@](C)([C@H]2CC(C)=C(C)C(=O)O2)[C@H]2CC[C@H]3[C@@H]4CC=C5[C@@H](O)C=CC(=O)[C@]5(C)[C@H]4CC[C@]123 [WITHAPHYSALIN I] = 5.1
• CC1=C(C)[C@]2(OC1=O)[C@H](O)[C@@H](C)[C@]1(O)CC[C@H]3[C@@H]4C[C@@H](O)[C@@]5(Cl)CC=CC(=O)[C@]5(C)[C@H]4C[C@@]2(O)[C@@]31C [JABOROSALACTONE 10] = >5.2
• CO[C@]12CC=CC(=O)[C@]1(C)[C@H]1C[C@@]3(O)[C@@]4(C)[C@@H](CC[C@@]4(O)[C@H](C)[C@@H](O)[C@]34OC(=O)C(C)=C4C)[C@@H]1C[C@H]2O [JABOROSALACTONE 12] = >4.2

As a next step, examine the compound that follows.
In plain terms, C[S+]([O-])CCCCN=C=S (stereo unspecified) [SULFORAPHANE] has a documented Ratio of 23.9

###

Documented pIC50 across a set of compounds
test: Growth inhibition of mouse Hepa-1c1c7 cells by crystal violet staining; type: cell-based; conditions: Mus musculus, Hepa-1c1c7
Just the number, please; pIC50 means minus log10 of the concentration in mol/L.

Study these solved cases before continuing.
- CO[C@@H]1O[C@@](C)([C@H]2CC(C)=C(C)C(=O)O2)[C@H]2CC[C@H]3[C@@H]4CC=C5[C@@H](O)C=CC(=O)[C@]5(C)[C@H]4CC[C@]123: 5.28
- C[C@@H](c1ccc2c(c1)CC[C@H]1[C@H]2[C@@H]2O[C@@H]2[C@@]2(O)CC=CC(=O)[C@]12C)C1C[C@]2(C)O[C@]2(C)[C@H](O)O1 (stereo partly drawn): 4.37
- C[C@H]1C[C@H]([C@](C)(O)[C@H]2[C@@H](O)C[C@H]3[C@@H]4C[C@H]5O[C@]56[C@@H](O)C=CC(=O)[C@]6(C)[C@H]4CC[C@]23C)OC(=O)[C@@H]1C: 5.32
- CC1=C(CO)C(=O)O[C@@H]([C@@H](C)[C@H]2CC[C@H]3[C@@H]4C[C@H]5O[C@]56CC=CC(=O)[C@]6(C)[C@H]4CC[C@]23C)C1: 5.74

In plain terms, CC(=O)O[C@H]1C=CC(=O)[C@]2(C)[C@H]3CC[C@]45C(O)O[C@@](C)([C@H]6C[C@H](C)[C@@H](C)C(=O)O6)[C@H]4CC[C@H]5[C@@H]3C[C@H]3O[C@]132 (stereo partly drawn) has a documented pIC50 of 6.41

In plain terms, `CC(=O)O[C@H]1C=CC(=O)[C@]2(C)[C@H]3CC[C@]45C(=O)O[C@@](C)([C@H]6CC(C)=C(C)C(=O)O6)[C@H]4CC[C@H]5[C@@H]3C[C@H]3O[C@]132` has a documented pIC50 of 6.24

###

experiment: Growth inhibition of mouse Hepa-1c1c7 cells by crystal violet staining; type: cell-based; settings: Mus musculus, Hepa-1c1c7
reported_endpoint: IC50 (µM)
Give the number; µM is assumed, so skip it.

Study these solved cases before continuing.
* CC1=C(C)[C@H]([C@H]2O[C@@]3(O)C[C@H]4[C@@H](C[C@H]5O[C@]56CC=CC(=O)[C@]46C)[C@@H]4CC[C@@](O)([C@@H]2C)[C@]43C)OC1=O [TRECHONOLIDE A] | 7.74
* CC(=O)O[C@@H]1O[C@@](C)([C@H]2CC(C)=C(C)C(=O)O2)[C@H]2CC[C@H]3[C@@H]4CC=C5[C@@H](OC(C)=O)C=CC(=O)[C@]5(C)[C@H]4CC[C@]123 | 5.1

As a next step, examine the compound that follows.
In plain terms, CO[C@H]1O[C@@](C)([C@H]2CC(C)=C(C)C(=O)O2)[C@H]2CC[C@H]3[C@@H]4CC=C5[C@@H](O)C=CC(=O)[C@]5(C)[C@H]4CC[C@]123 [WITHAPHYSALIN I] has a documented IC50 of 5.27

###

assay: Chemoprevention index, ratio of IC50 for mouse Hepa-1c1c7 cells to drug level required to double specific quinone reductase activity in mouse Hepa-1c1c7 cells; type: functional
Quick rule for you: Ratio at 7 or higher means Condition met, lower means Condition not met.

- C[C@H]1C[C@H]([C@](C)(O)[C@H]2[C@@H](O)C[C@H]3[C@@H]4C[C@H]5O[C@]56[C@@H](O)C=CC(=O)[C@]6(C)[C@H]4CC[C@]23C)OC(=O)[C@@H]1C: Condition met
- C[C@@H](c1ccc2c(c1)CC[C@H]1[C@H]2[C@@H]2O[C@@H]2[C@@]2(O)CC=CC(=O)[C@]12C)C1C[C@]2(C)O[C@]2(C)[C@H](O)O1 (stereo partly drawn): Condition not met
- CC1=C(C)[C@]2(OC1=O)C(=O)C(C)=C1CC[C@H]3[C@@H]4C[C@H]5O[C@]56CC=CC(=O)[C@]6(C)[C@H]4C[C@@]2(O)[C@]13C: Condition met
- CC1=C(C)[C@H]([C@H]2O[C@@]3(O)C[C@H]4[C@@H](C[C@H]5O[C@]56CC=CC(=O)[C@]46C)[C@@H]4CC[C@@](O)([C@@H]2C)[C@]43C)OC1=O [TRECHONOLIDE A]: Condition met
- C[C@H]1C[C@H]([C@](C)(O)[C@H]2CC[C@H]3[C@@H]4C[C@H]5O[C@]56[C@@H](O)C=CC(=O)[C@]6(C)[C@H]4CC[C@]23C)OC(=O)[C@@H]1C: Condition met
- CC1=C(C)C(=O)O[C@@H]([C@]2(C)OC(=O)[C@]34CC[C@H]5[C@@H](CC=C6[C@@H](O)C=CC(=O)[C@@]65C)[C@@H]3CC[C@H]24)C1: Condition met
- CC1=C(C)C(=O)O[C@@H]([C@](C)(O)[C@H]2CC[C@H]3[C@@H]4[C@@H](O)C=C5[C@@H](O)C=CC(=O)[C@]5(C)[C@H]4CC[C@]23C)C1: Condition not met

Could you now look at the following compound, please?
Threshold query (Ratio >= 7) on `CC1=C(C)[C@]2(OC1=O)[C@H](O)[C@@H](C)[C@]1(O)CC[C@H]3[C@@H]4CC=C5CC=CC(=O)[C@]5(C)[C@H]4C[C@@]2(O)[C@@]31C`
Condition met

###

test: Chemoprevention index, ratio of IC50 for mouse Hepa-1c1c7 cells to drug level required to double specific quinone reductase activity in mouse Hepa-1c1c7 cells; format: functional
Documented Ratio across a set of compounds
Write no unit; give the number alone.

Study these solved cases before continuing.
* CC1=C(C)C(=O)O[C@@H]([C@](C)(O)[C@H]2CC[C@H]3[C@@H]4[C@@H](O)[C@H]5O[C@]56[C@@H](O)C=CC(=O)[C@]6(C)[C@H]4CC[C@]23C)C1 | 2.5
* CC1=C(CO)C(=O)O[C@@H]([C@@H](C)[C@H]2CC[C@H]3[C@@H]4C[C@@H](O)C5=CC=CC(=O)[C@]5(C)[C@H]4CC[C@]23C)C1 | 11.1
* CO[C@@H]1O[C@@](C)([C@H]2CC(C)=C(C)C(=O)O2)[C@H]2CC[C@H]3[C@@H]4CC=C5[C@@H](O)C=CC(=O)[C@]5(C)[C@H]4CC[C@]123 | 10

In plain terms, CC1=C(C)C(=O)O[C@@H]([C@]2(C)OC(O)[C@]34CC[C@H]5[C@@H](CC=C6[C@@H](O)C=CC(=O)[C@@]65C)[C@@H]3CC[C@H]24)C1 (stereo not given in full) has a documented Ratio of 19.3

In plain terms, `CC(=O)O[C@@H]1[C@H]2[C@@H]3CC[C@H]([C@@](C)(O)[C@H]4CC(C)=C(C)C(=O)O4)[C@@]3(C)CC[C@@H]2[C@@]2(C)C(=O)C=C[C@H](OC(C)=O)[C@]23O[C@H]13` has a documented Ratio of 1.3
